- System: Plasmodium falciparum
- Experiment summary: NOVARTIS: Inhibition of Plasmodium falciparum 3D7 (drug-susceptible) proliferation in erythrocyte-based infection assay
- Assay type: functional, organism-based
- Test conditions: Plasmodium falciparum, 3D7
pEC50: −log10 of the molar value.
Label Criterion not met if pEC50 falls below 6; label Criterion met in every other case.

In [3]: df
Out[3]:
                                   molecule         class_name
0  CCOC(=O)CSC1=Nc2ccccc2C2=NC(Cc3ccccc3)C(=O)N12 (stereo unspecified)  Criterion not met
1  O=C(CS(=O)(=O)c1ccc(C(F)(F)F)cn1)NNS(=O)(=O)c1ccc(Cl)cc1  Criterion not met
2   Cn1c(SCC(=O)Nc2cccc(F)c2)nc2c(c1=O)SCC2  Criterion not met
3  c1ccc2c(NC3CCCC3)nc(Nc3ccc4c(c3)OCO4)nc2c1      Criterion met
4                    NCCCCCCNC(=S)Nc1ccccc1  Criterion not met

input: Assess whether reported pEC50 for `O=S(=O)(Oc1ccc2ccccc2c1Cc1c(OS(=O)(=O)c2ccccc2)ccc2ccccc12)c1ccccc1` sits at 6 or higher.
output: Criterion not met

input: Assess whether reported pEC50 for `CCOC(=O)c1nnn(-c2nonc2-n2cccc2)c1CN1CCCCC1` sits at 6 or higher.
output: Criterion not met

input: Assess whether reported pEC50 for `COc1ccc2c(c1)c1c3n2CCN(Cc2ccccc2)C3=[N+](C)CC1` sits at 6 or higher.
output: Criterion met

input: Assess whether reported pEC50 for `COc1ccc(C(=O)n2nc(N)c3cc4ccc(C)cc4nc32)cc1[N+](=O)[O-]` sits at 6 or higher.
output: Criterion not met

###

Field: pEC50. Provide a value for each of the compounds that follow.
- Test system: Plasmodium falciparum
- Experiment summary: NOVARTIS: Inhibition of Plasmodium falciparum W2 (drug-resistant) proliferation in erythrocyte-based infection assay
- Assay type: functional, organism-based
- Test conditions: Plasmodium falciparum, W2; read-out: EC50
pEC50: −log10 of the molar value.

Answer for every listed entry: what is its pEC50? The entries follow.
1. CCOc1ccc2nc(NCCNC(=O)c3ccco3)c(C)cc2c1
2. CN(CCCNc1nc2ccccc2c2nc(-c3cccnc3)nn12)Cc1ccccc1
3. COc1ccc(C(=O)C(C)[n+]2cccc3ccc4cccnc4c32)cc1 (centres undefined)
4. N=C(NN=Cc1cccc([N+](=O)[O-])c1)SC1CC(=O)N(c2cc(Cl)ccc2Cl)C1=O (centres undefined)

output:
1: < 6.55; 2: < 6.00; 3: < 6.24; 4: < 5.92

###

- System: Plasmodium falciparum
- Experiment summary: NOVARTIS: Inhibition of Plasmodium falciparum W2 (drug-resistant) proliferation in erythrocyte-based infection assay
- Format: functional, organism-based
- Test conditions: Plasmodium falciparum, W2; read-out: EC50
Note to self: EC50 under 800 nM means Fulfilled, ties and anything higher get Not fulfilled.

For orientation, consider the following solved cases.
                                   compound            test_system     class_name
0           Cc1cc(Nc2ccc(C)c(C)c2)n2cnnc2n1  Plasmodium falciparum      Fulfilled
1  Nc1nc(N)c2cc(S(=O)(=O)c3ccc4ccccc4c3)ccc2n1  Plasmodium falciparum  Not fulfilled
2  Cc1ccc(NC(=O)N(CCN(C)C)Cc2cc3cc4c(cc3[nH]c2=O)OCCO4)cc1  Plasmodium falciparum      Fulfilled
3          Oc1ccc(Br)cc1CN1CCN(c2ccccn2)CC1  Plasmodium falciparum      Fulfilled

Consider the additional compound presented here.
input: Item `COc1ccc(CCn2c(SCC(=O)N3CCN(c4ccccc4OC)CC3)nc3ccccc3c2=O)cc1OC` : EC50 beneath 800 nM, strictly?
output: Not fulfilled
